Quick list: IC50 per entry.
- Tested on: SK-MEL-28 tumor cells
- ASSAY_REMARKS: Method C: Cell Growth Inhibition Assay (CellTiter-Glo), SK-MEL-28
- Type: cell-based
- APPLIED_CONDITIONS: Homo sapiens, SK-MEL-28, 72 h, 3 days, 4-parameter fit

Ask | Form field: reported IC50 of CN(C)C1Cc2ccc(Nc3nccc(-c4sc(N)nc4-c4cccc(NC(=O)c5c(F)cccc5F)c4)n3)cc2C1 (stereo not shown)
Reply | > 1 µM

Ask | Name the reported IC50 value associated with the compound CN1CCN(c2nc(-c3cccc(NC(=O)c4c(F)cccc4F)c3)c(-c3ccnc(Nc4cccc(CN5CCCC5)c4)n3)s2)CC1
Reply | > 1 µM

Ask | Endpoint output: IC50 of CN(C)c1nc(-c2cccc(NC(=O)c3c(F)cccc3F)c2)c(-c2ccnc(Nc3ccc(OCCN4CCCC4)c(Cl)c3)n2)s1 . Value?
Reply | 0.1 to 1 µM

Ask | Any idea what IC50 was measured for CN(C)c1nc(-c2cccc(NC(=O)c3c(F)cccc3F)c2)c(-c2ccnc(Nc3ccc(OCCN4CCCC4)nc3)n2)s1 ?
Reply | > 1 µM

Ask | // IC50 lookup, key: O=C(Nc1cccc(-c2ncsc2-c2ccnc(Nc3cccc(CN4CCCC4)c3)n2)c1)c1c(F)cccc1F
Reply | > 1 µM

Ask | # get_value(readout='IC50', item= Cc1nc(-c2cccc(NC(=O)Nc3ccc(Cl)c(C(F)(F)F)c3)c2)c(-c2ccnc(Nc3ccc(OCCN(C)C)c(Cl)c3)n2)s1 )
Reply | 0.1 to 1 µM

Ask | Item Cc1nc(-c2cccc(NC(=O)c3c(F)cccc3F)c2)c(-c2ccnc(Nc3ccc(OC4CCN(C)CC4)c(F)c3)n2)s1 has what recorded IC50?
Reply | > 1 µM

Ask | Need IC50, item CN1CCc2ccc(Nc3nccc(-c4sc(N5CCCC5)nc4-c4cccc(NC(=O)c5c(F)cccc5F)c4)n3)cc2C1
Reply | 0.1 to 1 µM

Ask | Look at this compound and give its reported IC50. CN(C)Cc1cccc(Nc2nccc(-c3scnc3-c3cccc(NC(=O)c4c(F)cccc4F)c3)n2)c1
Reply | > 1 µM

Ask | Report IC50 for Cc1nc(-c2cccc(NC(=O)c3c(F)cccc3F)c2)c(-c2ccnc(Nc3cccc(CN4CCCC4)c3)n2)s1 please.
Reply | > 1 µM
